Assay target: PI3Kα H1047R (T47D cells) (Homo sapiens, UniProt P42336, H1047R)
Construct: endogenous in cells; host or cells: T47D cells
Sequence (P42336 whole entry H1047R): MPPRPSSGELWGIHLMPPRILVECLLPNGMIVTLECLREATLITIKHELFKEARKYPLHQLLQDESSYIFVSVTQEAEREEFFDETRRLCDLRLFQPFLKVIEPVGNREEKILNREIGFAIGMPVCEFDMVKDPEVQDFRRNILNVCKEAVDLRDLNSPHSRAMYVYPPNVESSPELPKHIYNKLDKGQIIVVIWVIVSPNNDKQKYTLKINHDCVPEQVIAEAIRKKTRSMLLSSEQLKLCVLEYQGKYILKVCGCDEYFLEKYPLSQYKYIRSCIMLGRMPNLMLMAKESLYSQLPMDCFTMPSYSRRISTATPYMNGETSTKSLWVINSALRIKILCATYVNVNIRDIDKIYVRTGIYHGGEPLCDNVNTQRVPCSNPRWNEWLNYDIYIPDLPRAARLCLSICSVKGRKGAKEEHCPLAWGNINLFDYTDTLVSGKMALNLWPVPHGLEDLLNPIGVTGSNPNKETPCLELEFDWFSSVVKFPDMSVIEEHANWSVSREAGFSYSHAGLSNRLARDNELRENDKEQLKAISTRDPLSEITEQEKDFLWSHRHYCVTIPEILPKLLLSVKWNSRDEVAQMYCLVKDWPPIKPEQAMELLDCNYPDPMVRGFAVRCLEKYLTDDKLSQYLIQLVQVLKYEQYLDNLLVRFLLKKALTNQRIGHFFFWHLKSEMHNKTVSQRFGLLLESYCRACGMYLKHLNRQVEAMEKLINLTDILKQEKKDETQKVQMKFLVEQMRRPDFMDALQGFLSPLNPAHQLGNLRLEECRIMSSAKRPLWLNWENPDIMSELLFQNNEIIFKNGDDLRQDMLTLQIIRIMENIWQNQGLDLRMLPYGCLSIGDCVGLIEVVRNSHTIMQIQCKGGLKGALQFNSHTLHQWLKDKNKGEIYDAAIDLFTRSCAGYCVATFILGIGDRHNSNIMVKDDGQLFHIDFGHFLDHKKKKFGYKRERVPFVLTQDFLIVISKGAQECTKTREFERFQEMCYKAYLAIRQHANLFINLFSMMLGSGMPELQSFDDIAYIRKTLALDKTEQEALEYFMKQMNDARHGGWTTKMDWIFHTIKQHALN
Sequence (P27986 whole entry partner): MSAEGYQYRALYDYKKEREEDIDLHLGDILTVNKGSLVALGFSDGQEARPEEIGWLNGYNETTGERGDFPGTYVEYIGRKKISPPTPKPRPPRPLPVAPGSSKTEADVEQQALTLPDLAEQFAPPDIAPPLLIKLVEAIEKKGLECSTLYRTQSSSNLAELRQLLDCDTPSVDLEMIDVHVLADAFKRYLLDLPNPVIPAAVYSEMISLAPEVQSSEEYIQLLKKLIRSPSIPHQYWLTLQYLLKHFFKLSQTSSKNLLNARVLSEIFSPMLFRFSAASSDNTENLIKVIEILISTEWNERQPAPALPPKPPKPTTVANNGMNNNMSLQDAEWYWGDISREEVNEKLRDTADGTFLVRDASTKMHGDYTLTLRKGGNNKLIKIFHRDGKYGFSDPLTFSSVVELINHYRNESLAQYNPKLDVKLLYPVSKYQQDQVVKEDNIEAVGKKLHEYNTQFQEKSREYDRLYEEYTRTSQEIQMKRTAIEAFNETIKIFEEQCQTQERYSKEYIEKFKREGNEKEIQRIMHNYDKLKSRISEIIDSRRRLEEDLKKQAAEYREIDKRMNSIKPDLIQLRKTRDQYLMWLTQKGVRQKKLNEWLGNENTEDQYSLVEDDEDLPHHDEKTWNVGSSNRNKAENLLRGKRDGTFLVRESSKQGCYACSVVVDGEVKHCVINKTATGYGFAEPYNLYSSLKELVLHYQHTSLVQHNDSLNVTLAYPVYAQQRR
Experiment description: PI3Kα cellular assay: pAKT HTRF in T47D cells after EGF stimulation
Assay type: cell-based
Condition: T47D cells (PI3Kα H1047R), pAKT S473 HTRF, 1 hr compound, 20 ng/ml EGF 10 min
Measurement type: IC50

* CNC(=O)c1ccc(-c2cc(=O)n3cc(C)cc(C(C)Nc4ccccc4C(=O)O)c3n2)c(C)c1 (stereo not drawn) [Compound 356] | > 2000 nM
* Cc1cc([C@@H](C)Nc2ccccc2C(=O)O)c2nc(N3CC[Si](C)(C)CC3)cc(=O)n2c1 (single isomer, unassigned) [Compound 431] | < 100 nM
* Cc1cc([C@H](C)Nc2ccccc2C)c2nc(N3CCOCC3)cc(=O)n2c1 [Compound 249] | 500 to 2000 nM
* Cc1cc([C@H](C)Nc2cc(F)cc(F)c2)c2nc(N3CCOCC3)cc(=O)n2c1 [Compound 264] | > 2000 nM
* Cc1cc([C@H](C)Nc2ccccc2S(C)(=O)=O)c2nc(N3CCOCC3)cc(=O)n2c1 [Compound 160] | > 2000 nM
* Cc1cc([C@H](C)Nc2ccccc2C(=O)O)c2nc(N3CC(Cl)C3)cc(=O)n2c1 [Compound 365] | > 2000 nM
